Reported Population Membrane Permeable-Phenotype (%) values for a set of molecules
- System: HEK-293T
- assay text: Multiplex assay against HEK293T
- Type: toxicity, cell-based
- measurement parameters: human, 48 h, 1 µM, compound concentration 1 uM, replicate 1
Answer in %, number only, no unit symbol.

{"molecule": "CN1CCN2c3ncccc3Cc3ccccc3C2C1 (stereo not drawn) [MIRTAZAPINE]", "system": "HEK-293T", "readout value": 1}
{"molecule": "CC(=O)NCCc1c(Cc2ccccc2)[nH]c2ccccc12 [LUZINDOLE]", "system": "HEK-293T", "readout value": 1}

// moving on: another record for Population Membrane Permeable-Phenotype (%)
stdin: Bench note: what Population Membrane Permeable-Phenotype (%) did O=C(O)Cc1ccccc1Nc1c(Cl)cccc1Cl [DICLOFENAC] show?
stdout: 1
